pEC50 by entry:
Tested on: HRMEC cells
methodNotes: In vitro cell proliferation assay (MTT)
Type: cell-based
conditionDetails: 72 hr, EC50 ≧ 1 μM, read-out: EC50, anti-proliferative activity
pEC50: −log10 of the molar value.

Consider the worked cases shown below.
- entrySmiles: "COC(=O)c1cc2cc(CNc3cc(NC(=O)c4ccc(CN5CCN(C)CC5)cc4)ccc3C)cnc2[nH]1"
  pEC50: "≤ 6.00"
- entrySmiles: "COC(=O)c1cc2cc(C=Cc3cc(NC(=O)c4ccc(CN5CCN(C)CC5)cc4)ccc3C)cnc2[nH]1"
  pEC50: "≤ 6.00"

Asked: Item: COC(=O)c1cc2cc(COc3cc(NC(=O)c4ccc(CN5CCN(C)CC5)cc4)ccc3C)cnc2[nH]1 Test system: HRMEC cells Read-out: pEC50 Value: ?
Given back: ≤ 6.00

====

inhibition at 0.1 µM by entry:
testedTarget: EGFR (ErbB1) (Homo sapiens, UniProt P00533)
Construct: purchased Invitrogen
Sequence (P00533 25-1210): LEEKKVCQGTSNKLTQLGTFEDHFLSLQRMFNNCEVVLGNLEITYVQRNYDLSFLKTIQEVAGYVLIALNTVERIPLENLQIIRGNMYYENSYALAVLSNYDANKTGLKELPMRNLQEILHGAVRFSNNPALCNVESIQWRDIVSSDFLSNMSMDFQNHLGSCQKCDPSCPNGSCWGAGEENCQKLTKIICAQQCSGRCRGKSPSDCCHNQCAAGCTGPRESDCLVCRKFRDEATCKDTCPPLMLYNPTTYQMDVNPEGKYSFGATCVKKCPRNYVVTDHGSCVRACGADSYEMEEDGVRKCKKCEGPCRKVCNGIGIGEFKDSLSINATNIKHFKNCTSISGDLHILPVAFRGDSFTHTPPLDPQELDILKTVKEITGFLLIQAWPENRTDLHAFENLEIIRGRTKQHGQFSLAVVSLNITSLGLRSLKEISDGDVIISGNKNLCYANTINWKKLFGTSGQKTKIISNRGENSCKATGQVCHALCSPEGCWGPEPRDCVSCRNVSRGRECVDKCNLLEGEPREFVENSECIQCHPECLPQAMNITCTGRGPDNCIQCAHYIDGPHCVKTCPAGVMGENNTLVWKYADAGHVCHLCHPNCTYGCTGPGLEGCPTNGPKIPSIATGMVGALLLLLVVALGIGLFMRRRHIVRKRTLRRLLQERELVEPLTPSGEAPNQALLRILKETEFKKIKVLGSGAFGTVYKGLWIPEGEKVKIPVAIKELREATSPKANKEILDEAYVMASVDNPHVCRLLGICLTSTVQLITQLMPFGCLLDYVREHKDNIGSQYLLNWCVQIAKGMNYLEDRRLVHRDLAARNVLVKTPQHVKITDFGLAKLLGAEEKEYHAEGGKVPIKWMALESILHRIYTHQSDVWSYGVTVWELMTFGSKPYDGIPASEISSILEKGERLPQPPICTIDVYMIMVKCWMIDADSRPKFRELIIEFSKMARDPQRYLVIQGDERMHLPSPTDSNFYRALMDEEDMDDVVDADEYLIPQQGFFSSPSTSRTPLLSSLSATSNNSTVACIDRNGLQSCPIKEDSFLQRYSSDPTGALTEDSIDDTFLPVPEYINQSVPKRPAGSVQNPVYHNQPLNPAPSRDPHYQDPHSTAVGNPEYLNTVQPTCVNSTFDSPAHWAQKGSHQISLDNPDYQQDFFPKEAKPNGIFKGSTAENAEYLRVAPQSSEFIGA
methodNotes: In vitro kinase assay (Z'-LYTE, Invitrogen)
Format: biochemical
conditionDetails: compound at 100 nM, ATP Km apparent, read-out: % of inhibition of the kinase compared to the control

Consider the worked cases shown below.
- compound: "COC(=O)c1cc2cc(CNc3cc(NC(=O)c4ccc(CN5CCN(C)CC5)cc4)ccc3C)cnc2[nH]1 [OR0746]"
  testedTarget: "EGFR (ErbB1) (Homo sapiens, UniProt P00533)"
  testReadout: "inhibition at 0.1 µM"
  observed: "≥ 50%"
- compound: "CC(=O)c1cc2cc(C(=O)Nc3cc(NC(=O)c4ccc(CN5CCN(C)CC5)c(C(F)(F)F)c4)ccc3C)cnc2[nH]1 [OR0724]"
  testedTarget: "EGFR (ErbB1) (Homo sapiens, UniProt P00533)"
  testReadout: "inhibition at 0.1 µM"
  observed: "≥ 50%"
- compound: "CC(=O)c1cc2cc(CCc3cc(NC(=O)c4cc(N5CCN(C)CC5)cc(C(F)(F)F)c4)ccc3C)cnc2[nH]1 [OR1059]"
  testedTarget: "EGFR (ErbB1) (Homo sapiens, UniProt P00533)"
  testReadout: "inhibition at 0.1 µM"
  observed: "≥ 50%"

Pending compound:
Asked: Any idea what inhibition at 0.1 µM was measured for COC(=O)c1cc2cc(CCc3cc(NC(=O)c4cncc(C(F)(F)F)c4)ccc3Cl)cnc2[nH]1 [OR1008] ?
Given back: < 50%

====

testedTarget: KDR (VEGFR2) (Homo sapiens)
Construct: purchased Invitrogen
Sequence (P35968 20-1356): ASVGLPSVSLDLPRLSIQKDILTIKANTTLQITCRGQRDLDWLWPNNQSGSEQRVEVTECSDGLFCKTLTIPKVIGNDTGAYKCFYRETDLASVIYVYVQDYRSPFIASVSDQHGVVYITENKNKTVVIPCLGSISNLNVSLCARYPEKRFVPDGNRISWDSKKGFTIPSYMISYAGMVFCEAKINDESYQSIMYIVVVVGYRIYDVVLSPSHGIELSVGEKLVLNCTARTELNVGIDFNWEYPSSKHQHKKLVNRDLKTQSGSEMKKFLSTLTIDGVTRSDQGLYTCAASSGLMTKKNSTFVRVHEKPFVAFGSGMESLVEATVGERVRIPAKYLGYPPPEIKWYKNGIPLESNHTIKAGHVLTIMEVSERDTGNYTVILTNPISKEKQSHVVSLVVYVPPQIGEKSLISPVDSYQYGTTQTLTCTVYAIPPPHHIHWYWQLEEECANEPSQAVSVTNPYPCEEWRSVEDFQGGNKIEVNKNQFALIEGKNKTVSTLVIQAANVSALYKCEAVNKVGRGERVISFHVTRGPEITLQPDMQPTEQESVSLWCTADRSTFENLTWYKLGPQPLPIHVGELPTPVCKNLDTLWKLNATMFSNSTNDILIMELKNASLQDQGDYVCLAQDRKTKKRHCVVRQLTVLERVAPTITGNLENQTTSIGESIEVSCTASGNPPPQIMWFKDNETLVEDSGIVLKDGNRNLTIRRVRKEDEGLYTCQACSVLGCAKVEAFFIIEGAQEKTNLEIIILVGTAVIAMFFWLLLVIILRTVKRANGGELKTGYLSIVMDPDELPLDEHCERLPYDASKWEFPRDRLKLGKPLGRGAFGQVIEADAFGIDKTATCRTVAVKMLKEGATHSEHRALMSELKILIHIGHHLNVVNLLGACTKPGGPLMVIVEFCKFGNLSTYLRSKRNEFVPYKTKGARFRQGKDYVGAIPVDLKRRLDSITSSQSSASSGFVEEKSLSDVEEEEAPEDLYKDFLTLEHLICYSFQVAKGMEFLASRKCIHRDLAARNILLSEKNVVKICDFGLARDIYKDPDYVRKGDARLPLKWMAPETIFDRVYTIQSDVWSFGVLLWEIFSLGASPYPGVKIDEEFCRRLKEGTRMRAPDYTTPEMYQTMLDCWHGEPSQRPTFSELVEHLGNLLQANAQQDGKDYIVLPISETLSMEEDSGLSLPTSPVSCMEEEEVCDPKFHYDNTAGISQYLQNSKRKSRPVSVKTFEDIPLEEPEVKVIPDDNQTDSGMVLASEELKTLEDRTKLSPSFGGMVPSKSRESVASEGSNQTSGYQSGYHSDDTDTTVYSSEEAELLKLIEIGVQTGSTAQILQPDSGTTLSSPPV
methodNotes: In vitro kinase assay (Z'-LYTE, Invitrogen)
Format: biochemical
conditionDetails: compound at 100 nM, ATP Km apparent, read-out: % of inhibition of the kinase compared to the control
Description: The inhibitory activity of the compounds on 7 kinases (BRAF, EGFR (ErbB1), EGFR (ErbB1) T790M L858R, FGFR2, KDR (VEGFR2), PDGFRA (PDGFR alpha), SRC) was evaluated by Invitrogen using the Z′-LYTE® technology. Briefly, the Z′-LYTE® biochemical assay employs a fluorescence-based, coupled-enzyme format and is based on the differential sensitivity of phosphorylated and non-phosphorylated peptides to proteolytic cleavage. […]
testReadout: inhibition at 0.1 µM

Consider the worked cases shown below.
- compound: "CC(=O)c1cc2cc(CCc3cc(NC(=O)Nc4cccc(C(F)(F)F)c4)ccc3C)cnc2[nH]1 [OR0919]"
  testedTarget: "KDR (VEGFR2) (Homo sapiens)"
  testReadout: "inhibition at 0.1 µM"
  observed: "< 50%"
- compound: "COC(=O)c1cc2cc(CNC(=O)c3cc(NC(=O)c4ccc(CN5CCC(N(C)C)C5)c(C(F)(F)F)c4)ccc3C)cnc2[nH]1 (stereo not shown) [OR0726]"
  testedTarget: "KDR (VEGFR2) (Homo sapiens)"
  testReadout: "inhibition at 0.1 µM"
  observed: "< 50%"
- compound: "COC(=O)c1cc2cc(C=Cc3cc(NC(=O)c4ccc(CN5CCC(N(C)C)C5)c(C(F)(F)F)c4)ccc3C)cnc2[nH]1 (stereo not shown) [OR0778]"
  testedTarget: "KDR (VEGFR2) (Homo sapiens)"
  testReadout: "inhibition at 0.1 µM"
  observed: "≥ 50%"

Pending compound:
Asked: Any idea what inhibition at 0.1 µM was measured for COC(=O)c1cc2cc(CCc3ccc(C)c(NC(=O)c4cc(-n5cnc(C)c5)cc(C(F)(F)F)c4)c3)cnc2[nH]1 [OR1068] ?
Given back: ≥ 50%

====

testedTarget: BRAF (Homo sapiens)
Construct: purchased Invitrogen
Sequence (P15056 whole entry): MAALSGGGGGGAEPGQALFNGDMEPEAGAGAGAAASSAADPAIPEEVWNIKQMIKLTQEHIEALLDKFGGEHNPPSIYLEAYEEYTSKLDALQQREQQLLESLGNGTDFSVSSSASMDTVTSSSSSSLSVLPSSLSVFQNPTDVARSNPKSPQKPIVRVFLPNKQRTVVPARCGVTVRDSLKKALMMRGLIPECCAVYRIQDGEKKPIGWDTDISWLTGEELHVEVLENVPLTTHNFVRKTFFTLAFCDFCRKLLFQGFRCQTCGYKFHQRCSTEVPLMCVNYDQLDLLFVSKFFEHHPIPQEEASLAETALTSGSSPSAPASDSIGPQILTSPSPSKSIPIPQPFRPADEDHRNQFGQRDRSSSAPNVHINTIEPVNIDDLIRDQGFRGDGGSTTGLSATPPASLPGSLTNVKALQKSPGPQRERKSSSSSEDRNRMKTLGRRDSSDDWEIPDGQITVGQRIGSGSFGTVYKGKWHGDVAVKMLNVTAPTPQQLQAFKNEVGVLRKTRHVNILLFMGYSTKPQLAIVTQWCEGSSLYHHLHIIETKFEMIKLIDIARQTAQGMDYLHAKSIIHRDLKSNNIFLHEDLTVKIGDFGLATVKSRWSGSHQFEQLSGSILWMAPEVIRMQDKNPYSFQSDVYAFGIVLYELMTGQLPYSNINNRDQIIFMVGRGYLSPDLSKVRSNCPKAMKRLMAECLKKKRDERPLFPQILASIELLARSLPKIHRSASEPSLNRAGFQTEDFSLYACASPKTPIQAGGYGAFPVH
methodNotes: In vitro kinase assay (Z'-LYTE, Invitrogen)
Assay type: biochemical
conditionDetails: compound at 100 nM, ATP Km apparent, read-out: % of inhibition of the kinase compared to the control
testReadout: inhibition at 0.1 µM

Consider the worked cases shown below.
- compound: "COC(=O)c1cc2cc(CCc3cccc(NC(=O)c4ccc(CN5CCN(C)CC5)c(C(F)(F)F)c4)c3)cnc2[nH]1 [OR0921]"
  observed: "< 50%"
- compound: "COC(=O)c1cc2cc(COc3cc(NC(=O)c4ccc(CN5CCN(C)CC5)c(C(F)(F)F)c4)ccc3C)cnc2[nH]1 [OR0749]"
  observed: "< 50%"
- compound: "CC(=O)c1cc2cc(CCc3cc(NC(=O)Nc4cccc(C(F)(F)F)c4)ccc3C)cnc2[nH]1 [OR0919]"
  observed: "< 50%"
- compound: "CC(=O)c1cc2cc(CCc3cc(NC(=O)c4ccc(CN5CCC(N(C)C)C5)c(C(F)(F)F)c4)ccc3C)cnc2[nH]1 (stereo not shown) [OR0798]"
  observed: "≥ 50%"
- compound: "CC(=O)c1cc2cc(C(=O)Nc3cc(NC(=O)c4cc(-n5cnc(C)c5)cc(C(F)(F)F)c4)ccc3C)cnc2[nH]1 [OR0723]"
  observed: "< 50%"
- compound: "COC(=O)c1cc2cc(C=Nc3cc(NC(=O)c4ccc(CN5CCN(C)CC5)c(C(F)(F)F)c4)ccc3C)cnc2[nH]1 [OR1070]"
  observed: "< 50%"

Pending compound:
Asked: Any idea what inhibition at 0.1 µM was measured for COC(=O)c1cc2cc(CCc3cc(NC(=O)c4ccc(CN5CCN(C)CC5)c(F)c4)ccc3C)cnc2[nH]1 [OR0920] ?
Given back: ≥ 50%

====

inhibition at 0.1 µM by entry:
testedTarget: SRC (Homo sapiens, UniProt P12931)
Construct: purchased Invitrogen
Sequence (P12931 whole entry): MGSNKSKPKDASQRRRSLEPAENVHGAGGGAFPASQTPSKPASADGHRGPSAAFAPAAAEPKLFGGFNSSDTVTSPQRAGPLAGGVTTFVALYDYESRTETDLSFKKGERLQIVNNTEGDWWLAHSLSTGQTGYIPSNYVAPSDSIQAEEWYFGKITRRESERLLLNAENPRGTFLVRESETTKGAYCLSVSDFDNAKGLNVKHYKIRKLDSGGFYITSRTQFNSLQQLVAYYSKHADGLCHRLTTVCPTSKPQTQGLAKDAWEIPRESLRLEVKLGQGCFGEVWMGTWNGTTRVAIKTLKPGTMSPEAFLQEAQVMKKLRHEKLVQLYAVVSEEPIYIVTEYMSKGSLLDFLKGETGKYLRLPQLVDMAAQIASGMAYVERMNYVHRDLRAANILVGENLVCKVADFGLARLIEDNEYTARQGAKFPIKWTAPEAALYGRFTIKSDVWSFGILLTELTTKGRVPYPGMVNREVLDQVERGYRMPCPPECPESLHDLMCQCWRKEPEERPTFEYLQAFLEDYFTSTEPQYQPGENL
methodNotes: In vitro kinase assay (Z'-LYTE, Invitrogen)
Assay type: biochemical
conditionDetails: compound at 100 nM, ATP Km apparent, read-out: % of inhibition of the kinase compared to the control

- compound: "COC(=O)c1cc2cc(C=Cc3cc(NC(=O)c4ccc(CN5CCC(N(C)C)C5)c(C(F)(F)F)c4)ccc3C)cnc2[nH]1 (stereo not drawn) [OR0778]"
  testedTarget: "SRC (Homo sapiens, UniProt P12931)"
  observed: "≥ 50%"
- compound: "COC(=O)c1cc2cc(CCc3cccc(NC(=O)c4ccc5[nH]ccc5c4)c3)cnc2[nH]1 [OR0978]"
  testedTarget: "SRC (Homo sapiens, UniProt P12931)"
  observed: "< 50%"
- compound: "COC(=O)c1cc2cc(CCc3cccc(NC(=O)c4cncc(C(F)(F)F)c4)c3)cnc2[nH]1 [OR0981]"
  testedTarget: "SRC (Homo sapiens, UniProt P12931)"
  observed: "≥ 50%"

Asked: Any idea what inhibition at 0.1 µM was measured for CC(=O)c1cc2cc(C(=O)Nc3cc(NC(=O)c4cc(-n5cnc(C)c5)cc(C(F)(F)F)c4)ccc3C)cnc2[nH]1 [OR0723] ?
Given back: < 50%

Asked: Any idea what inhibition at 0.1 µM was measured for CC(=O)c1cc2cc(CCc3cc(NS(=O)(=O)c4cccc(C(F)(F)F)c4)ccc3C)cnc2[nH]1 [OR0967] ?
Given back: < 50%

====

testedTarget: EGFR (ErbB1) T790M L858R (Homo sapiens, UniProt P00533, L858R/T790M)
Construct: purchased Invitrogen
Sequence (P00533 25-1210 T790M/L858R): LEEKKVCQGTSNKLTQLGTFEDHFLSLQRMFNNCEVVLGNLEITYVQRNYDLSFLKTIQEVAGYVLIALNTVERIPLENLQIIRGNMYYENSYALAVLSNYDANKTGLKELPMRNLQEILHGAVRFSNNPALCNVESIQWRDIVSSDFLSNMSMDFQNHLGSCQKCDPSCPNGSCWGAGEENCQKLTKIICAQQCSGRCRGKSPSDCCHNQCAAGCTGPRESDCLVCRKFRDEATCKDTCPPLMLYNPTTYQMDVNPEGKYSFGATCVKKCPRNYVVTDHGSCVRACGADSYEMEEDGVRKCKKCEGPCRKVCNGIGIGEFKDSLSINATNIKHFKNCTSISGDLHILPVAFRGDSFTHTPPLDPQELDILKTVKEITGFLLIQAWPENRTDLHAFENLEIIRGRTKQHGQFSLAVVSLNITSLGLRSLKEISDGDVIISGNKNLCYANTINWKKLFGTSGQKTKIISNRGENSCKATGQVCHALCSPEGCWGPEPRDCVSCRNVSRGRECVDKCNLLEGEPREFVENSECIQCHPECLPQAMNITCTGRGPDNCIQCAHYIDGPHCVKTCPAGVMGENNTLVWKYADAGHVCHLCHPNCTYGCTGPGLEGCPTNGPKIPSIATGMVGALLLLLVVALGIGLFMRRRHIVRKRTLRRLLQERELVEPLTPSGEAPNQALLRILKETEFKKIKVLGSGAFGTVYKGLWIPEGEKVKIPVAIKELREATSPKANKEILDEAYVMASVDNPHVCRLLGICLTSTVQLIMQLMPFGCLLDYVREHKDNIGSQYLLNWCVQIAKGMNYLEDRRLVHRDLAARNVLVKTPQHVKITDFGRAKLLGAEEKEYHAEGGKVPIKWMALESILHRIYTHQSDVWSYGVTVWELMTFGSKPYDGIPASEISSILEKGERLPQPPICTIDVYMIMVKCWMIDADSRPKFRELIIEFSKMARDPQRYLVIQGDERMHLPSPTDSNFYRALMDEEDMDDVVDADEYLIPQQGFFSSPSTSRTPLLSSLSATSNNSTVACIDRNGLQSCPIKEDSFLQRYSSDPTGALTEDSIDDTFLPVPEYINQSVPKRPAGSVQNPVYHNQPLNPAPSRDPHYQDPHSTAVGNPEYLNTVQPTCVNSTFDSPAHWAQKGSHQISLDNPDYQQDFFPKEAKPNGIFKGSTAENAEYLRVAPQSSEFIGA
methodNotes: In vitro kinase assay (Z'-LYTE, Invitrogen)
Format: biochemical
conditionDetails: compound at 100 nM, ATP Km apparent, read-out: % of inhibition of the kinase compared to the control
inhibition at 0.1 µM by entry:

Asked: Item: COC(=O)c1cc2cc(C=Cc3cc(NC(=O)c4ccc(CN5CCN(C)CC5)c(C(F)(F)F)c4)ccc3C)cnc2[nH]1 Test system: EGFR (ErbB1) T790M L858R (Homo sapiens, UniProt P00533, L858R/T790M) Read-out: inhibition at 0.1 µM Value: ?
Given back: < 50%

Asked: Item: COC(=O)c1cc2cc(CNc3cc(NC(=O)c4ccc(CN5CCN(C)CC5)cc4)ccc3C)cnc2[nH]1 Test system: EGFR (ErbB1) T790M L858R (Homo sapiens, UniProt P00533, L858R/T790M) Read-out: inhibition at 0.1 µM Value: ?
Given back: < 50%

Asked: Item: COC(=O)c1cc2cc(COc3cc(NC(=O)c4ccc(CN5CCC(N(C)C)C5)c(C(F)(F)F)c4)ccc3C)cnc2[nH]1 (stereo not shown) Test system: EGFR (ErbB1) T790M L858R (Homo sapiens, UniProt P00533, L858R/T790M) Read-out: inhibition at 0.1 µM Value: ?
Given back: < 50%

Asked: Item: COC(=O)c1cc2cc(CNC(=O)c3cc(NC(=O)c4ccc(CN5CCC(N(C)C)C5)c(C(F)(F)F)c4)ccc3C)cnc2[nH]1 (stereo not shown) Test system: EGFR (ErbB1) T790M L858R (Homo sapiens, UniProt P00533, L858R/T790M) Read-out: inhibition at 0.1 µM Value: ?
Given back: < 50%

Asked: Item: CC(=O)c1cc2cc(C(=O)Nc3cc(NC(=O)c4ccc(CN5CCN(C)CC5)c(C(F)(F)F)c4)ccc3C)cnc2[nH]1 Test system: EGFR (ErbB1) T790M L858R (Homo sapiens, UniProt P00533, L858R/T790M) Read-out: inhibition at 0.1 µM Value: ?
Given back: ≥ 50%

Asked: Item: COC(=O)c1cc2cc(CNc3cc(NC(=O)c4ccc(CN5CCN(C)CC5)c(C(F)(F)F)c4)ccc3C)cnc2[nH]1 Test system: EGFR (ErbB1) T790M L858R (Homo sapiens, UniProt P00533, L858R/T790M) Read-out: inhibition at 0.1 µM Value: ?
Given back: < 50%

Asked: Item: COC(=O)c1cc2cc(CCc3cc(NC(=O)c4ccc(CN5CCN(C)CC5)c(C(F)(F)F)c4)ccc3C)cnc2[nH]1 Test system: EGFR (ErbB1) T790M L858R (Homo sapiens, UniProt P00533, L858R/T790M) Read-out: inhibition at 0.1 µM Value: ?
Given back: ≥ 50%
